system: MS2 coat protein; assay: apparent KD of MS2 coat protein; designed switch direction (-1 OFF switch, 1 ON switch): 1; higher = weaker reporter binding; conditions: input ligand: none
Rule: apparent KD of MS2 coat protein of 100 nM or more gives y; anything lower gives n.

Consider the following illustrative entries.
# Seq String, Label
data = [
    ("GGAGCCGGCCUAGGAUAUUUCAUAUAAUAACAUGAGGAUCACCCAUGUAGGCCAGAAGGCCUUGGGAAGAAGGAGGUCGGCUCC [Loop Effect - U25,U28] (Eterna round: R96, puzzle: Same State NG 2)", "n"),
    ("GGAAAGAGGUCAGGAUAUGAAUGGUUGGGACAUGAGGAUCACCCAUGUAAUAGAAGAAAUCUACAUUAGAAGGGACAAGGAAGG [AK SSNG2-V2-5.1] (Eterna round: R96, puzzle: Same State NG 2)", "y"),
]

# input Given the entry UGUUGUAUUACAGGAUAUCUAUUGUUUUGAUUUAGAGAAGGGUAUUCACAUGAGGAUCACCCAUGUAUAUACGAGGAAGUUGUG [JMF's solution 77] (Eterna round: R96, puzzle: Same State NG 1) , answer whether its apparent KD of MS2 coat protein meets or surpasses 100 nM.
# output n

# input Given the entry GUUAGGAAUCUAGCAUACAUGAGGAUCACCCAUGUUAGUGGGAAGGAUAUGGUACAGAAACUGUACCAGAAGGUCUUAUUGUUU [Omei SS(NG) 3 AV12] (Eterna round: R96, puzzle: Same State NG 3) , answer whether its apparent KD of MS2 coat protein meets or surpasses 100 nM.
# output y

* * *

Form field: apparent KD of MS2 coat protein (one value per entry).
tested on: MS2 coat protein; assay: apparent KD of MS2 coat protein; designed switch direction (-1 OFF switch, 1 ON switch): -1; higher = weaker reporter binding; details: input ligand: microRNA oligo, concentration not stated
Reply numerically in nM, unit not repeated.

# Seq String, Measurement Unit, Assay Value
measured = [
    ("UUGUAACGAUUAGGAUAUUAUUAAUAGAACUUUAUGAUAUACAUGAGGAUCACCCAUGUUACUUUUAAGAAGGAAUCGUAUUAU [JR_ExcNG2_Sub091] (Eterna round: R96, puzzle: Exclusion NG 2)", "nM", 17),
]

# input What value of apparent KD of MS2 coat protein has been recorded for this entry: UGGACAUGAGGAUCACCCAUGUAAUACACACCUCAGCCACGAGAGGAUAUGCCCGGAGGACCGGCGCAGAAGGCUCCCAAGAGA [Eternabot solution 10] (Eterna round: R96, puzzle: Exclusion NG 3)
# output 29.5

# input What value of apparent KD of MS2 coat protein has been recorded for this entry: UGAGUGCUGCGAGGAUAUACAUGAGGAUCACCCAUGUAAUCGUGUGAGGCAAAGCCUCACACGAAGUAGAAGGCGCAGUACUCA [Mat - Exclusion NG 2 - Mod of JL - D18] (Eterna round: R96, puzzle: Exclusion NG 2)
# output 12.4

# input What value of apparent KD of MS2 coat protein has been recorded for this entry: AGAGAAUAGUCAGGAUAUGAGAAUAGAUAGAGCUCAGAAGGGACACAUGAGGAUCACCCAUGUGAAGUCUUGAGGCUGCGUGGA [Prohibition 20 - Jieux - Exclusion NG 1] (Eterna round: R96, puzzle: Exclusion NG 1)
# output 11.3

* * *

Form field: apparent KD of MS2 coat protein (one value per entry).
tested on: MS2 coat protein; assay: apparent KD of MS2 coat protein; designed switch direction (-1 OFF switch, 1 ON switch): -1; higher = weaker reporter binding; conditions: input ligand: FMN 200 uM
Reply numerically in µM, unit not repeated.

# Seq String, Parameter, Measurement Unit, Assay Value
rows = [
    ("AAAAAGUGAGGAUAUACAUGAGGAUCACCCAUGUAAUAAAAAAAAAGGGUGGAAGAAAGUAGAAGGCACCAAAA [Ex 3 May 48] (Eterna round: R96, puzzle: Exclusion 3)", "apparent KD of MS2 coat protein", "µM", 0.323),
    ("UAAAGUAUAUAGGAUAUCUAGCUGGAAACAGCUAGAGAAGGAUGUACAUGAGGAUCACCCAUGUAGAUCUCAAA [Ex6/15-A2] (Eterna round: R97, puzzle: Exclusion 6)", "apparent KD of MS2 coat protein", "µM", 0.019),
    ("CAGUACUGAGGAUAUACAUGAGGAUCACCCAUGUAUCCUAGCUAGGAAACUAGCAAAUGUAGAAGGCAGUACUG [Ex3: 818] (Eterna round: R96, puzzle: Exclusion 3)", "apparent KD of MS2 coat protein", "µM", 0.747),
    ("AGUCGGUCAGGAUAUGCAAUCGUGGACAUGAGGAUCACCCAUGUAACGUGGGCCUGGUUUGUAGAAGGGACGUGCA [EX5 #88] (Eterna round: R97, puzzle: Exclusion 5)", "apparent KD of MS2 coat protein", "µM", 0.0632),
]

# input What value of apparent KD of MS2 coat protein on MS2 coat protein does ACUGUUUGAUACCUCUUAUACAUGAGGAUCACCCAUGUUAUCGAGGAUAUGCAUUAGAGUGGUUAGCAGAAGGCGAUGUAAUUG [JR_ExcNG3_Sub032] (Eterna round: R96, puzzle: Exclusion NG 3) have?
# output 0.0308

# input What value of apparent KD of MS2 coat protein on MS2 coat protein does UUAUACAAGCAAAGAUCCCACAUGAGGAUCACCCAUGUGCUCGUCUUAUAAGGAACUGUGACGAAAGUCACGGUUCC [Mat - Sensor, turn-off var - Eli Mod - D100] (Eterna round: R97, puzzle: Sensor, turn-off variant 1) have?
# output 0.0362

# input What value of apparent KD of MS2 coat protein on MS2 coat protein does UAUUAAACAAGCAGAUCCCACAUGAGGAUCACCCAUGUGCUCGUCUUAUAAGGUACUGUGACGAAAGUCACGGUACC [Sensor 3, v1 - 91 v11] (Eterna round: R97, puzzle: Sensor, turn-off variant 1) have?
# output 0.0567

# input What value of apparent KD of MS2 coat protein on MS2 coat protein does UUACUGCAAGGAUAUACAUGAGGAUCACCCAUGUUAAUGACACGGUGCAGCUUCGACAGUAGAAGGUGCGUGGG [Eternabot (L1) Solution 71] (Eterna round: R97, puzzle: Exclusion 3) have?
# output 0.0432

# input What value of apparent KD of MS2 coat protein on MS2 coat protein does CCAUAUAACACAGGAUAUCAUCGCAACUGACGUUGAGAAGGGUGACAUGAGGAUCACCCAUGUGAUUUCUCAAUAUUAUACAUC [Prohibition 81 - Jieux - Exclusion NG 1] (Eterna round: R96, puzzle: Exclusion NG 1) have?
# output 1.04

* * *

tested on: MS2 coat protein; assay: apparent KD of MS2 coat protein; designed switch direction (-1 OFF switch, 1 ON switch): -1; higher = weaker reporter binding; details: input ligand: FMN 200 uM
Form field: apparent KD of MS2 coat protein (one value per entry).
Reply numerically in nM, unit not repeated.

# Seq String, Measurement Unit, apparent KD of MS2 coat protein
measured = [
    ("GCACUGACAGGAUAUACAUGAGGAUCACCCAUGUGACCCUUAAAGUACUCGCGUACAAGUAGAAGGGUCUGUGC [Omei Ex3 Model Bachelor's Dilema v30] (Eterna round: R97, puzzle: Exclusion 3)", "nM", 398),
    ("UGGGUUCCAAGUGAGUCAGACAUGAGGAUCACCCAUGUAUAGCAAGCCUUAGCCGUUCGAGCAAAUGGUCUCGUCAG [Eternabot (Original) Solution 36] (Eterna round: R97, puzzle: Sensor, turn-off variant 1)", "nM", 384),
    ("GCGCAGCUGGUAGGAUAUUACAGACAGGACUCACGUAAGGGAGCCUGACAUGAGGAUCACCCAUGUAAGAAGGGCCGUGGUAUC [Eternabot solution 11] (Eterna round: R96, puzzle: Exclusion NG 2)", "nM", 34.5),
]

Shift focus to the following entry.
# input What value of apparent KD of MS2 coat protein has been recorded for this entry: AUGGAGGUAGUCAGGAUAUCGGGCGCUCGGGCGUACGAGAAGGGACAUGAGGAUCACCCAUGUCGCUCAUUCCA [BmEX4 C.2] (Eterna round: R97, puzzle: Brourd's mod of Exclusion 4)
# output 24.6

* * *

Form field: apparent KD of MS2 coat protein (one value per entry).
system: MS2 coat protein; assay: apparent KD of MS2 coat protein; designed switch direction (-1 OFF switch, 1 ON switch): 1; higher = weaker reporter binding; details: input ligand: microRNA oligo, concentration not stated

Known apparent KD of MS2 coat protein results, listed for orientation:
# Seq String, Assay Value
measured = [
    ("GCCAUCGUAUGAGGAUAUGGCACCGAAACGGUGCCAGAAGGCAUGUCAAUAGACAUGAGGAUCACCCAUGUAUUAUCGAUGGCA [Mat - Same State NG 1 - JL mod - D90] (Eterna round: R96, puzzle: Same State NG 1)", "278 nM"),
    ("GAGUGGAGGUAAGGAUAUAUAAUGAUAAUCACAGUAGAAGGUACUAACAUGAGGAUCACCCAUGUAGGACUAUACCAGAGAGGG [Parity 45 - Jieux - Same State NG 1] (Eterna round: R96, puzzle: Same State NG 1)", "11.9 nM"),
    ("UCUCGGCACGCAGGAUAUCCCGCUUCCUGGUGAGGAGAAGGGUGGUCGGGAAAACAUGAGGAUCACCCAUGUAAAAGUAAGAGG [Usdidige] (Eterna round: R96, puzzle: Same State NG 1)", "61.3 nM"),
    ("AAAGGAUGAUUAUACAUGAGGAUCACCCAUGUUUGUAAUACUAAGGAUAUGUGACUUAAUUGUGAACAGAAGGUAGGUUCAUGA [AK SSNG3-V2-1] (Eterna round: R96, puzzle: Same State NG 3)", "43.6 nM"),
    ("GUGGAGGGUUAAGGAUAUUGAAUACAUAUGUUUAACAUGAGGAUCACCCAUGUGGGUUGCGGUAUCGAGAAGGUAAAUUACUGG [salish99_SSNG2_r04_035] (Eterna round: R96, puzzle: Same State NG 2)", "151 nM"),
    ("AAAUAAAACACAGGAUAUGCAACCAAAACGGCGGCAGAAGGGUGAGACAUGAGGAUCACCCAUGUACACGUCCCACGGACGUGC [Arorraed] (Eterna round: R96, puzzle: Same State NG 1)", "9.43 nM"),
]

# input What value of apparent KD of MS2 coat protein has been recorded for this entry: AUUAUUUAUGCAGGAUAUGAUUAACAUGAGGAUCACCCAUGUGGUGUUGUGAGUAAGGAGAGUGAUCAGAAGGGCAUUUGUUUU [JMF's solution 48] (Eterna round: R96, puzzle: Same State NG 2)
# output 321 nM

# input What value of apparent KD of MS2 coat protein has been recorded for this entry: CUGAGCGAUCAAGGAUAUCACGUCGAAUAGACGUGAGAAGGUGAUCCAUACAUGAGGAUCACCCAUGUAUAACAUGAAGCUCAG [SSNG1/8-A1] (Eterna round: R96, puzzle: Same State NG 1)
# output 21.6 nM

# input What value of apparent KD of MS2 coat protein has been recorded for this entry: AUUAUACAUGAGGAUCACCCAUGUAAUUAAUCUAGUAAGAUCUAGGAUAUCAGCUCGAAUAGAGCUGAGAAGGAGAUCACAUGU [SSNG3/20-D1] (Eterna round: R96, puzzle: Same State NG 3)
# output 45.8 nM
